Test: Caco-2 membrane permeability and efflux rate
Assay type: in vitro ADME
Conditions: human, Caco-2, Caco-2, 5 μM, read-out: ER (efflux rate)
Experimental: The recovered Caco-2 cell suspension was seeded into a […] plate and cultured for 14-18 days. After being cultured for 14 days, the cells were fused and differentiated to be ready for a transport experiment. […] A fluorescence value was measured after a two-hour transport experiment, a lucifer yellow solution was added in a transwell chamber (top end), a transport buffer solution was added in the basal end, and incubation was carried out for 30 minutes in the CO2 incubator at 37° C. […]
RECORDED METRIC: efflux ratio at 2 h, 5 μM

CC(O)[C@H](C)Nc1ncc(C(F)(F)F)c(-c2c[nH]c3c(P(C)(C)=O)cccc23)n1 (single isomer, unassigned): 6.76
CP(C)(=O)c1cccc2c(-c3nc(NC4(CO)CC4)ncc3C(F)(F)F)c[nH]c12: 12.5
CP(C)(=O)c1cccc2c(-c3nc(NC45CC(O)(C4)C5)ncc3C(F)(F)F)c[nH]c12: 17.1
CP(C)(=O)c1cccc2c(-c3nc(NCC4CC(O)C4)ncc3C(F)(F)F)c[nH]c12 (centres unmarked): 7.41

[A] CP(C)(=O)c1cccc2c(-c3nc(NC4(CO)CCOC4)ncc3C(F)(F)F)c[nH]c12 (single isomer, unassigned)
[B] CC(CO)CNc1ncc(C(F)(F)F)c(-c2c[nH]c3c(P(C)(C)=O)cccc23)n1 (single isomer, unassigned)
[C] CP(C)(=O)c1cccc2c(-c3nc(N[C@H]4CCCNC4)ncc3C(F)(F)F)c[nH]c12 [A control compound WO2018013867 (353), reference compound]
[D] CP(C)(=O)c1cccc2c(-c3nc(NC4(CO)COC4)ncc3C(F)(F)F)c[nH]c12
[E] C[C@@H](CO)Nc1ncc(C(F)(F)F)c(-c2c[nH]c3c(P(C)(C)=O)c(F)ccc23)n1
Arrange the 5 compounds from largest to smallest efflux ratio at 2 h, 5 μM. Present the labels in the sequence the task asks for.
C, D, A, B, E

[1] CP(C)(=O)c1cccc2c(-c3nc(NCCO)ncc3C(F)(F)F)c[nH]c12
[2] CP(C)(=O)c1cccc2c(-c3nc(N[C@@H]4CC[C@H]4O)ncc3C(F)(F)F)c[nH]c12
Endpoint returns the identifier whose efflux ratio at 2 h, 5 μM is numerically larger, either 1 or 2 . Field: selected label. Fill in the label of the entry you choose.
1
(1: 20.8, 2: 5.94)

====

# pIC50 per entry
molecular target: CDK12 (aa686-1082)/cyclinK complex (Homo sapiens); construct: A CDK12 (aa686-1082)/cyclinK complex (50 nM); assay: In-vitro enzymatic inhibitory activity testing, CDK12 inhibition assay (Caliper EZ Reader II); assay type: biochemical; settings: CDK12/cyclinK 50 nM, 180 min at 27° C.; read-out: CDK12 IC50
Sequence (Q9NYV4 686-1082, species assumed): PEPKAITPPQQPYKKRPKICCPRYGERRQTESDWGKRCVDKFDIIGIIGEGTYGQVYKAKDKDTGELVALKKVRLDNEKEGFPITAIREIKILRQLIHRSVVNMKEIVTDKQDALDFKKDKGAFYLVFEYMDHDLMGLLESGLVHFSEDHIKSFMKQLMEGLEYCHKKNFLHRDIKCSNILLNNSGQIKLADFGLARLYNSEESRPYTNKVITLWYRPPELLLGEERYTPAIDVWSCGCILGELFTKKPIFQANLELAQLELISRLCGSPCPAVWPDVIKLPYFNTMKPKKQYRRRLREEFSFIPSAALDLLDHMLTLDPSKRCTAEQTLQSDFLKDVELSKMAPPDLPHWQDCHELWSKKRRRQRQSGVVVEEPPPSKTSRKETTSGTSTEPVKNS
Sequence (O75909 whole entry partner, species assumed, the tested form may be a part): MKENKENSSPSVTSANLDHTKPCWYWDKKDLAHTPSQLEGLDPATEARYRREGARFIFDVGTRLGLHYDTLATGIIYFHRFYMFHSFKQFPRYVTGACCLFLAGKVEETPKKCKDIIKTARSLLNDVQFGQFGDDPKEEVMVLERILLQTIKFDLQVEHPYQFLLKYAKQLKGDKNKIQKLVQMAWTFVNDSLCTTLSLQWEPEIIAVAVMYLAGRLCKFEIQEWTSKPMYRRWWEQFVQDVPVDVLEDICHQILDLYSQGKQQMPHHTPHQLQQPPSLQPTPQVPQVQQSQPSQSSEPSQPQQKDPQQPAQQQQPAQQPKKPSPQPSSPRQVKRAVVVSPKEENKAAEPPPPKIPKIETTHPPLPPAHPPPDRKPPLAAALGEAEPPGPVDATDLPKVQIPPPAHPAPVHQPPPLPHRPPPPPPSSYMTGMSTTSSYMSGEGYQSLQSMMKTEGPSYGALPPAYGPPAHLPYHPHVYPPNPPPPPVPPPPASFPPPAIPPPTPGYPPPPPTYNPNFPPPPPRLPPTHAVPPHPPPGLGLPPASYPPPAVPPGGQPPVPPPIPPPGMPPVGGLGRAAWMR
pIC50: −log10 of the molar value.

FC(F)(F)c1cnc(NC2CCC3CNCC32)nc1-c1c[nH]c2nc(N3CCOCC3)ccc12 (centres unmarked) [Compound 55]: < 4.30
CP(C)(=O)c1cccc2c(-c3nc(NC4(CO)CC(F)C4)ncc3C(F)(F)F)c[nH]c12 (centres unmarked): < 4.30
CP(C)(=O)c1cccc2c(-c3nc(NC4(CO)CCOCC4)ncc3C(F)(F)F)c[nH]c12: < 4.30
CP(C)(=O)c1c(C#N)ccc2c(-c3nc(N[C@@H]4CCC45CNC5)ncc3C(F)(F)F)c[nH]c12: < 4.30

Give recorded pIC50. CC(C)C(O)CNc1ncc(C(F)(F)F)c(-c2c[nH]c3c(P(C)(C)=O)cccc23)n1 (centres unmarked)
< 4.30

Using known records, supply pIC50 for C[C@@H]1C[C@H](Nc2ncc(C(F)(F)F)c(-c3c[nH]c4nc(N5CCOCC5)ccc34)n2)CCN1
4.30 to 5.30

For CP(C)(=O)c1cccc2c(-c3nc(NCC4(O)CCOC4)ncc3C(F)(F)F)c[nH]c12 (single isomer, unassigned) [Compound 122] , write its pIC50.
< 4.30

Answer with the recorded pIC50 for the compound listed here: CP(C)(=O)c1cccc2c(-c3nc(NCC(O)C(F)F)ncc3C(F)(F)F)c[nH]c12 (single isomer, unassigned) [Compound 125]
< 4.30

Name the recorded pIC50 of the item N#Cc1ccc2c(-c3nc(N[C@H]4CC[C@H](N)C4)ncc3C(F)(F)F)c[nH]c2n1 in your answer.
4.30 to 5.30

Annotate the compound CP(C)(=O)c1cccc2c(-c3nc(NCC(O)C(F)(F)F)ncc3C(F)(F)F)c[nH]c12 (single isomer, unassigned) [Compound 146] with its measured pIC50.
< 4.30

// Input: CP(C)(=O)c1cccc2c(-c3nc(NCC(O)C(F)F)ncc3C(F)(F)F)c[nH]c12 (single isomer, unassigned) [Compound 124] . Output its pIC50 only.
< 4.30

Name the recorded pIC50 of the item CP(C)(=O)c1cccc2c(-c3nc(NC4(CO)CCOC4)ncc3C(F)(F)F)c[nH]c12 (centres unmarked) [Compound 117] in your answer.
< 4.30

Give me measured pIC50, please, for this compound: CP(C)(=O)c1cccc2c(-c3nc(NC4CC45CCNC5)ncc3C(F)(F)F)c[nH]c12 (single isomer, unassigned) [Compound 110]
4.30 to 5.30
